Exercise: for every item that follows, state its recorded normalized growth.
test: chemical genetic growth profiling, strain panel (AID 1159580);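 also: tested at 20 µM; growth read once vehicle control cultures reached saturation at 30 °C; 1 = growth at the plate median or of vehicle wells; lower values mean less growth of the strain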; conditions: S. cerevisiae deletion strains, growth OD, locus YPL241C, strain CIN2, hits give low values
About 2,000 (36%) of roughly 5,500 compounds were called active. Inconclusive results (about 18%) are left out. The list shows a part of the results.
Answer with the value's number alone.

Value of normalized growth reported for the compound `Cc1cccc(Nc2ccccc2C(=O)O)c1C` is 0.902

Value of normalized growth reported for the compound `Cc1onc(-c2c(F)cccc2Cl)c1C(=O)c1ccc(F)cc1` is 0.964

Value of normalized growth reported for the compound `Cc1c(Cl)cccc1Nc1ccccc1C(=O)O` is 0.852

Value of normalized growth reported for the compound `CC[C@H](C)C(=O)O[C@H]1CCC=C2C=C[C@H](C)[C@H](CC[C@@H]3C[C@@H](O)CC(=O)O3)[C@H]21` is 0.994

Value of normalized growth reported for the compound `COCCCNC(=S)Nc1ccc(C)cc1C` is 0.973

Value of normalized growth reported for the compound `Cc1ccc(Cl)c(Nc2ccccc2C(=O)O)c1Cl` is 0.943

Value of normalized growth reported for the compound CC[C@H](C)C(=O)O[C@H]1CCC=C2C=C[C@H](C)C(CCC3C[C@@H](O)CC(=O)O3)[C@H]21 (stereo partly specified) is 0.981

Value of normalized growth reported for the compound NC(CO)C(=O)NNCc1ccc(O)c(O)c1O (stereo unspecified) is 1.01

Value of normalized growth reported for the compound `O=c1cc[nH]c(=S)[nH]1` is 1.01

Value of normalized growth reported for the compound `Cc1ccc(-n2cccc2)c(NC(=S)Nc2ccc(Br)cc2OC(F)(F)F)c1` is 0.92

Value of normalized growth reported for the compound Nc1ccn(C2O[C@H](CO)[C@@H](O)[C@@H]2O)c(=O)n1 (stereo partly specified) is 1.01

====

Exercise: for every item that follows, state its recorded normalized growth.
assay: chemical genetic growth profiling, strain panel (AID 1159580);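 also: tested at 20 µM; growth read once vehicle control cultures reached saturation at 30 °C; 1 = growth at the plate median or of vehicle wells; lower values mean less growth of the strain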; details: S. cerevisiae deletion strains, growth OD, locus YKR001C, strain vps1, hits give low values
Among all 5,500 compounds or so, about 2,000 (36%) were called active. Inconclusive results (about 18%) are left out. Some of the results follow.
Answer with the value's number alone.

Value of normalized growth reported for the compound `CC[N+](CC)(CC)CCOc1cccc(OCC[N+](CC)(CC)CC)c1OCC[N+](CC)(CC)CC` is 1

Value of normalized growth reported for the compound CO/N=C(\C(=O)NC1C(=O)N2C(C(=O)O)=C(COC(N)=O)CSC12)c1ccco1 (stereo not given) is 0.0619

Value of normalized growth reported for the compound `CC(=O)N[C@@H](CS)C(=O)O` is 1.01

Value of normalized growth reported for the compound `CCC(C)(C)C(=O)O[C@H]1C[C@@H](C)C=C2C=C[C@H](C)[C@H](CC[C@@H]3C[C@@H](O)CC(=O)O3)[C@H]21` is 1.01

Value of normalized growth reported for the compound `Cc1cc(-c2ccccc2)nnc1NCCN1CCOCC1` is 0.98

Value of normalized growth reported for the compound `CC(C)NC[C@H](O)COc1cccc2ccccc12` is 1.04

Value of normalized growth reported for the compound `CO/N=C(\C(=O)N[C@@H]1C(=O)N2C(C(=O)O)=C(COC(C)=O)CS[C@H]12)c1csc(N)n1` is 0.992

Value of normalized growth reported for the compound CC(C)NCC(O)c1cc(O)cc(O)c1 (stereo not given) is 1.02

Value of normalized growth reported for the compound CC1(C)C2(Cl)C(Cl)C(Cl)C(Cl)(C(Cl)Cl)C1(Cl)C2Cl (stereo not given) is 0.932

Value of normalized growth reported for the compound CC1C[C@H]2CC(=O)[C@H]3CCCN4CCC[C@H]2[C@]34C1 (stereo not given in full) is 1.02
